Tested on: Mus musculus
Test Protocol: Toxicity in CDF1 mouse allografted with mouse P388 cells assessed as survival at 3.13 to 50 mg/kg, ip on days 5, 9 and 13
Assay type: organism-based
Parameters: dose 3.13-50 mg/kg, route intraperitoneal
Setup Conditions: in vivo
Reported Metric: Activity

According to the records, this molecule `COc1cccc2c1C(=O)c1c(O)c3c(c(O)c1C2=O)C[C@@](O)(C(C)=O)C[C@@H]3O[C@H]1C[C@H](O)[C@H](O)[C@@H](C)O1` displays Activity of Non-toxic

According to the records, this molecule `COc1cccc2c1C(=O)c1c(O)c3c(c(O)c1C2=O)C[C@@](O)(C(C)=O)C[C@@H]3O[C@H]1C[C@H](OC(=O)c2ccc([N+](=O)[O-])cc2)[C@H](OC(=O)c2ccc([N+](=O)[O-])cc2)[C@@H](C)O1` displays Activity of Non-toxic

According to the records, this molecule `COc1cccc2c1C(=O)c1c(O)c3c(c(O)c1C2=O)C[C@@](O)(C(C)=O)C[C@@H]3O[C@@H]1C[C@H](O)[C@H](O)[C@@H](C)O1` displays Activity of Non-toxic

According to the records, this molecule `COc1cccc2c1C(=O)c1c(O)c3c(c(O)c1C2=O)C[C@@](O)(C(C)=O)C[C@@H]3O[C@@H]1C[C@H](OC(=O)c2ccc([N+](=O)[O-])cc2)[C@H](OC(=O)c2ccc([N+](=O)[O-])cc2)[C@@H](C)O1` displays Activity of Non-toxic
